Taken from PubChem BioAssay.

# ASSAY EXPLANATION: HepG2 cytotoxicity, primary screen, cytotoxicity control for P. falciparum antimalarial project, cell-based, ATP luminescence (AID 2303)
# CONDITION SET: HepG2 viability, 24-48 h, at 10 µM
Activity calls are given as the source filed them.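 The calls were made as follows: active = inhibition above 50%; inactive = the rest.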
Labels: Y (active), N (inactive)

MOLECULE	CLASS ASSIGNMENT
COc1ccc(Nc2nc(N3CCCC3)c3ccccc3n2)cc1	N
O=C(Nc1cccc(-c2nn3ccccc3c2-c2ccnc(Nc3cccc(N4CCCC4=O)c3)n2)c1)c1cc(F)ccc1F	Y
O=C(c1ccco1)N1CCN(c2nc(-c3ccc(Cl)cc3)nc3ccccc23)CC1	N
O=C(Nc1cccc(CN2CCCN(Cc3cccc(F)c3)CC2)c1)c1ccc(Cl)c(Cl)c1	N
O=C(Nc1cccc(-c2cccc(-c3nc4ccc(C(F)(F)F)cc4[nH]3)c2)c1)c1cccnc1	Y
CC(Cc1ccc(CNC(=O)c2ccc(CC(C)NCCc3cccc(Cl)c3)cc2)cc1)NCCc1cccc(Cl)c1 (centres undefined)	Y
COCCCn1c(=N)c(C(=O)NCCc2ccc(OC)cc2)cc2c(=O)n3cccc(C)c3nc21	N
Cc1ccc(-c2ccc3c(c2)C=C(C(=O)NC2CCN(CCNC(=O)c4cccs4)CC2)CCC3)cc1	N
Cc1cccc2[nH]c(-c3ccc(-c4ccc(CN5CCCC(N)C5)cc4)cc3)nc12 (centres undefined)	N
Cc1ccc(Cn2ncc(N3C[C@@H](C)N[C@@H](C)C3)c(Cl)c2=O)cc1NC(=O)Nc1ccc(-c2ccccc2)cc1	Y
O=C(Nc1cccc(-c2cc(-c3c(Cl)cccc3Cl)no2)c1)c1cnc2ccccc2c1	N
COc1cccc(NC(=O)[C@H](C(C)C)n2c(=O)[nH]c3ccccc3c2=O)c1	N
COc1ccc(CNC2Cc3ccccc3C2)cc1-c1ccc(OC)c(S(=O)(=O)NCCN2CCCC2)c1	N
O=C(NCCCN1CCCC1=O)NCc1ccccc1	N
O=C(/C=C/c1ccc(Cl)c(Cl)c1)NCCCCCN1CCC(NC(=O)Nc2ccc(C(F)(F)F)cc2)CC1	Y
Cc1cccc2[nH]c(-c3cccc(-c4cccc(CNCc5cnn(-c6ccccc6)n5)c4)c3)nc12	N
COc1cc(NC2=NS(=O)(=O)c3cc(Cl)ccc3N2C)cc(OC)c1OC	N
N=c1n(Cc2ccc(Cl)cc2)c2ccccc2n1CC(O)c1ccc(Cl)c(Cl)c1 (centres undefined)	Y
COc1cc(OC)c2c(C)cc(NCCCn3ccnc3)nc2c1	N
CCCCCCCCCCN1C(=O)C2C(CCCCNC(C)=O)NC3(C(=O)N(Cc4ccc(C(C)(C)C)cc4)c4ccccc43)C2C1=O (centres undefined)	N
Cc1nc(N)nc(N)c1CCCOc1ccc(Br)cc1	N
O=C(O)CCCN1CCCC(=C(c2ccccc2)c2ccccc2)C1	N
CCOC(=O)C(=O)N1c2ccc(OCC)cc2-c2c(ssc2=S)C1(C)C	N
O=C(c1ccc(-c2ccc(-c3nc4ccc(C(F)(F)F)cc4[nH]3)s2)cc1)N1CCN(CCc2ccccc2)CC1	N
O=C(Nc1ccc(C(=O)OC[C@@H]2CCCN3CCCC[C@H]23)cc1)c1ccc([N+](=O)[O-])cc1	N
Cc1ccc2c(NC(=O)Nc3ccc(N(C)C)cc3)cc(C)nc2c1	N
O=C(NC1CCN(CCN2CCC(c3ccccc3C(F)(F)F)CC2)CC1)c1ccc(-c2ccc(Cl)cc2)cc1	N
Nc1ncc(-c2ccsc2)cc1-c1nc2ccccc2[nH]1	N
O=C(c1ccc([N+](=O)[O-])o1)N1CCN(c2ccccc2)CC1	N
N#Cc1cc([N+](=O)[O-])ccc1-n1nc(-c2cccc(Cl)c2)n(CC2CCCO2)c1=S (centres undefined)	N
COc1cc2c(cc1C(F)(F)F)N(C(=O)Nc1cc(-c3ccncc3)cc(-c3cccnc3)c1)CC2	Y
CC(=O)c1sc2ccccc2c1O	N
CCCCCCOc1ccc(C(=O)NCCCC2CCCN(CCCCCNC(=O)C=Cc3ccc(Cl)c(Cl)c3)C2)cc1 (centres undefined)	N
CC(C)CN1CCCN(Cc2cccc(NC(=O)c3ccc(Cl)c(Cl)c3)c2)CC1	N
COc1ccc(O)c(C(=O)c2cc(C#N)c(=O)n(-c3ccc(Oc4ccccc4)cc3)c2)c1	N
COc1cc(Nc2nccc(N3CCC(NC(=O)c4cccc(NC(C)=O)c4)C3)n2)cc(OC)c1OC (centres undefined)	N
CN(CC(=O)Nc1cc(C(F)(F)F)ccc1-n1cncn1)Cc1ccc2ccccc2c1	N
CCC(O)c1ccc(Br)cc1NC(=O)c1cccc(Cl)c1 (centres undefined)	N
Oc1ccc2[nH]c(-c3cccs3)nc2c1CN1CCC(O)(c2ccccc2)CC1	N
